- Assay info: Inhibition of hexa-his tagged Helicobacter pylori XGHPRT using guanine and PRib-PP as substrate
Attribute measured: Ki (µM)
Provide the reading as a plain figure in µM.

Recorded Ki for Nc1nc2c(ncn2CCN(CCOCc2ccccc2)CCP(=O)(O)O)c(=O)[nH]1 , please?
5

Recorded Ki for Nc1nc2c(ncn2CCN(CCN(CCCO)CCP(=O)(O)O)CCP(=O)(O)O)c(=O)[nH]1 , please?
0.2

Recorded Ki for O=c1[nH]cnc2c1ncn2CCN(CCOCCP(=O)(O)O)CCP(=O)(O)O , please?
1.1

Recorded Ki for O=c1[nH]cnc2c(CNCCCP(=O)(O)O)c[nH]c12 , please?
2.4

Recorded Ki for Nc1nc2c(ncn2[C@@H]2CN(C(=O)CP(=O)(O)O)C[C@H]2OC[C@@H](O)P(=O)(O)O)c(=O)[nH]1 , please?
0.2

Recorded Ki for O=c1[nH]cnc2c(CN(CCCP(=O)(O)O)CCCP(=O)(O)O)c[nH]c12 , please?
4

Recorded Ki for Nc1nc2c(ncn2[C@H]2CCN(C(=O)CP(=O)(O)O)C2)c(=O)[nH]1 , please?
1.9

Recorded Ki for Nc1nc2c(ncn2CC(COCP(=O)(O)O)COCP(=O)(O)O)c(=O)[nH]1 , please?
3.4

Recorded Ki for Nc1nc2c(ncn2CC(COCCP(=O)(O)O)COCP(=O)(O)O)c(=O)[nH]1 (centres undefined) , please?
0.4

Data provenance: ChEMBL document CHEMBL4825670
